I'd be grateful if you could share measured photoluminescence quantum yield for these entries.
- Test: photoluminescence quantum yield (fraction); solvent given as SMILES
- Condition parameters: in CCOCC
Answers are plain numbers.

Please report photoluminescence quantum yield for every entry that follows.
1. CN(C)c1ccc(C#Cc2ccc(C#N)cc2)cc1
2. COc1ccc2c3c(cccc13)C(=O)c1ccccc1-2
3. CCCCCCCCCCCCCCCCOc1cc(C#Cc2ccc3ccccc3c2-c2c(C#Cc3cc(OCCCCCCCCCCCCCCCC)c(C#Cc4ccc(C=C(C#N)C#N)cc4)cc3OCCCCCCCCCCCCCCCC)ccc3ccccc23)c(OCCCCCCCCCCCCCCCC)cc1C#Cc1ccc(C=C(C#N)C#N)cc1
4. Nc1cc(N)cc(-c2nc3ccccc3s2)c1
5. CCCCCCCCCCCCCCCCOc1cc(C#Cc2ccc3ccccc3c2)c(OCCCCCCCCCCCCCCCC)cc1C#Cc1ccc(C=C(C#N)C#N)cc1
6. COc1ccc(/C=C/c2ccccc2)cc1
7. COc1cc(/C=C/c2ccccc2)cc(OC)c1
8. CC(C)[Si]1(C(C)C)c2cc(C#N)ccc2-c2ccc(N(C)C)cc21

1. 0.29
2. 0.05
3. 0.87
4. 0.061
5. 0.79
6. 0.015
7. 0.27
8. 0.66

Below are some compounds; for each one, tell me its photoluminescence quantum yield.
1. c1ccc(-c2ccc(-c3ccc(-n4c5ccccc5c5ccccc54)cc3)c3nsnc23)cc1
2. CN(C)c1ccc(C2=Cc3cccc[n+]3[B-](F)(F)O2)cc1
3. COc1ccc(-c2nc(C(C)=O)c(C)o2)cc1
4. O=C1c2ccccc2C(=O)c2cc(-c3ccc(N(c4ccccc4)c4ccccc4)cc3)ccc21
5. CN(C)c1ccc2c(c1)COc1c-2oc2ccccc2c1=O
6. CN(C)c1ccc(C#Cc2ccccc2)cc1
7. O=C1OC(c2ccccc2)=N/C1=C\c1ccc(N(c2ccccc2)c2ccccc2)cc1
8. CCCCCCCCC1(CCCCCCCC)c2cc(-c3ccc(C(F)(F)F)cc3)ccc2-c2ccc(N(c3ccc(-n4c5ccccc5c5ccccc54)cc3)c3ccc4c(c3)C(CCCCCCCC)(CCCCCCCC)c3cc(-c5ccc(C(F)(F)F)cc5)ccc3-4)cc21

1: 0.599; 2: 0.868; 3: 0.019; 4: 0.0129; 5: 1; 6: 0.11; 7: 0.072; 8: 0.76

Each compound below has a recorded value; state its photoluminescence quantum yield.
1. Cc1cc(N(C)C)cc(C)c1/C=C/C=C/c1ccc(C#N)cc1
2. CC(C)[Si]1(C(C)C)c2ccccc2-c2ccc(N(C)C)cc21
3. COc1cccc(/C=C/c2ccccc2)c1
4. CC(C)[Si]1(C(C)C)c2cc(C=O)ccc2-c2ccc(N(C)C)cc21

0.082
0.22
0.18
0.79

----------
Give measured photoluminescence quantum yield for each item. Keep answers brief.
- Test: photoluminescence quantum yield (fraction); solvent given as SMILES
- Condition parameters: in CC(C)CC(C)(C)C
Give bare numbers.

Compound	photoluminescence quantum yield
O=C1OC(c2ccccc2)=N/C1=C\c1ccc(N(c2ccccc2)c2ccccc2)cc1	0.028
CN(C)c1ccc(C#Cc2ccccc2)cc1	0.28
COC(=O)C(Cc1ccc2oc(-c3ccc4c(c3)c3ccccc3n4-c3ccccc3)nc2c1)NC(=O)OC(C)(C)C (centres undefined)	0.86

Pending compound:
What value of measured photoluminescence quantum yield is listed for CN(C)c1ccc(C#Cc2ccc(C#N)cc2)cc1 ?
0.032

----------
- Test: photoluminescence quantum yield (fraction); solvent given as SMILES
- Condition parameters: in C1CCOC1
Please respond with reported photoluminescence quantum yield for every item in the list.

Examples from the recorded data:
Item smiles	photoluminescence quantum yield
Cc1ccc(C2=C3C=CC(c4ccccc4)=[N+]3[B-](F)(F)n3c2ccc3-c2ccccc2)cc1	0.22
C1=Cc2ccccc2C(=Cc2ccc(-c3ccc(C=C4c5ccccc5C=Cc5ccccc54)cc3)cc2)c2ccccc21	0.00012
CCN1c2ccc(/C=N/Nc3ccccn3)cc2Sc2cc(/C=N/Nc3ccccn3)ccc21	0.15
CN(C)c1ccc2cc(C3=[O+][B-](F)(F)OC(c4ccccc4)=C3)ccc2c1	0.1
CCCCCCCCC1(CCCCCCCC)c2cc(-c3ccc(C(F)(F)F)cc3)ccc2-c2ccc(N(c3ccc(-n4c5ccccc5c5ccccc54)cc3)c3ccc4c(c3)C(CCCCCCCC)(CCCCCCCC)c3cc(-c5ccc(C(F)(F)F)cc5)ccc3-4)cc21	0.61

// each compound listed below needs its photoluminescence quantum yield
1. CCn1c2ccccc2c2cc(-c3cc(-c4ccc5c(c4)c4ccccc4n5CC)nc(OC)n3)ccc21
2. CC1=N/C(=C\c2cccc(N(C)C)c2)C(=O)N1CCO

1: 0.48; 2: 0.12

Field request: photoluminescence quantum yield | item: CN(C)c1ccc(C(=Cc2ccc(/C=C/c3ccc(C#N)cc3)cc2)c2ccc(N(C)C)cc2)cc1
0.042

----------
Exercise: for every item that follows, state its recorded photoluminescence quantum yield.
- Test: photoluminescence quantum yield (fraction); solvent given as SMILES
- Condition parameters: in CO
One number for each entry.

Respectfully, I request photoluminescence quantum yield for each entry included below.
1. Cc1ccc(C2=[N+]3C(=Cc4ccc(C)n4[B-]3(F)F)c3ccccc32)[nH]1
2. CN1/C(=C/C=C(/C=C/c2sc3ccccc3[n+]2C)c2ccc(F)cc2)Sc2ccccc21
3. CC1(C)C2=[N+](CCCCCC(=O)NCCCNC(=O)CCCCCN3/C(=C/C=C/C=C/C=C/2)C(C)(C)c2cc(S(=O)(=O)[O-])ccc23)c2ccc(S(=O)(=O)[O-])cc21
4. NS(=O)(=O)c1ccc(N2N=C(c3ccc(O)cc3)CC2c2ccccc2)cc1 (centres undefined)

0.83
0.09
0.58
0.28

For the 5 compounds below, give their photoluminescence quantum yield values.
1. COCCOCCOCCN1C(=O)c2cc(NCCOCCO)c3c4c(cc(NCCOCCO)c(c24)C1=O)C(=O)N(CCOCCOCCOC)C3=O
2. CC1=C2C=CC=[N+]2[B-](F)(F)n2cccc21
3. CN1/C(=C/C=C(/C=C/c2sc3ccccc3[n+]2C)c2ccccc2)Sc2ccccc21
4. c1ccc2c(c1)CCc1ccccc1N2
5. COC(=O)C(NC(=O)OC(C)(C)C)c1ccc2oc(-c3cc(OC)c(OC)cc3OC)nc2c1 (centres undefined)

1. 0.37
2. 1
3. 0.07
4. 0.131
5. 0.81

----------
- Test: photoluminescence quantum yield (fraction); solvent given as SMILES
- Condition parameters: in Cc1ccccc1
Readout: photoluminescence quantum yield
Answers are plain numbers.

Check out these entries, answers already filled in.
Molecule	photoluminescence quantum yield
CCCCCCCCCCCCOc1ccc(C#Cc2ccc(C#Cc3ccc(OCCCCCCCCCCCC)c(OCCCCCCCCCCCC)c3)c3nc4c5ccccc5c5ccccc5c4nc23)cc1OCCCCCCCCCCCC	0.19
CCCCC1=Cc2c3ccc4cccc5ccc(c6cc(-c7ccc(N(c8ccccc8)c8ccccc8)cc7)n(c26)P1(=O)c1ccccc1)c3c45 (centres undefined)	0.61
O=Cc1ccc(C2=C3C=c4c(oc5ccccc45)=[N+]3[B-](F)(F)n3c2cc2c4ccccc4oc23)cc1	0.53

Read the next record carefully.
Can you share its photoluminescence quantum yield? I mean this molecule: c1ccc(-c2nnc(-c3ccc(-n4c5ccccc5c5ccccc54)cc3)o2)cc1
0.57

----------
Please provide measured photoluminescence quantum yield for the entries that follow.
- Test: photoluminescence quantum yield (fraction); solvent given as SMILES
- Condition parameters: in CCCCCC
One number for each entry.

Molecule	Readout value
Cc1ccc(C#Cc2ccc3ccc4cccc5ccc2c3c45)cc1	0.29
CCC1=C(C)C2=C(c3c4ccccc4c(C)c4ccccc34)c3c(C)c(CC)c(C)n3[B-](F)(F)[N+]2=C1C	0.883
CCCCCCCCC1(CCCCCCCC)c2cc(-c3ccc(C(F)(F)F)cc3)ccc2-c2ccc(N(c3ccc(-n4c5ccccc5c5ccccc54)cc3)c3ccc4c(c3)C(CCCCCCCC)(CCCCCCCC)c3cc(-c5ccc(C(F)(F)F)cc5)ccc3-4)cc21	0.6
CCOC(=O)COc1ccc(/C=C/C2=C3c4ccccc4C(c4[nH]c(C)cc4C)=[N+]3[B-](F)(F)n3c(/C=C/c4ccc(OCC(=O)OCC)cc4)cc(C)c32)cc1	0.04
F[B-]1(F)n2c(NCc3ccccc3)ccc2C(c2c(Cl)cccc2Cl)=C2C=CC(NCc3ccccc3)=[N+]21	0.55

Batch request: photoluminescence quantum yield per item, same order as input.
1. F[B-]1(F)n2cccc2C(c2ccc(-c3c4ccccc4c(-c4ccccc4)c4ccccc34)cc2)=C2C=CC=[N+]21
2. CC1=CC(C)=[N+]2C1=C(c1c3ccccc3c(-c3ccccc3)c3ccccc13)c1c(C)cc(C)n1[B-]2(F)F
3. O=S(=O)(c1ccc(-c2ccc(-c3nc4c5ccccc5c5ccccc5c4n3-c3ccccc3)cc2)cc1)c1ccc(-c2ccc(-c3nc4c5ccccc5c5ccccc5c4n3-c3ccccc3)cc2)cc1
4. Fc1ccc(-c2cc3c4c(c2)CCc2cc(-c5ccc(F)cc5)cc(c2-4)CC3)cc1
5. Nc1ccc(C#Cc2ccc3ccc4ccc(C#Cc5ccc(N)cc5)c5ccc2c3c45)cc1
6. COc1ccc2n1[B-](F)(F)[N+]1=C(SC#N)C=CC1=C2c1ccccc1

1: 0.014; 2: 0.9; 3: 0.676; 4: 0.55; 5: 0.466; 6: 0.08

Would you mind giving photoluminescence quantum yield for every molecule in the list below?
1. CC(C)[Si](C#Cc1c2cc3ccccc3cc2c(C#C[Si](C(C)C)(C(C)C)C(C)C)c2nc3c(ccc4ccccc43)nc12)(C(C)C)C(C)C
2. O=C1OC(c2ccccc2)=N/C1=C\c1ccc(N(c2ccccc2)c2ccccc2)cc1
3. CCN1C(=O)C(C2C(=O)c3c4ccccc4cc4cc5ccccc5c2c34)C(=O)N(CC)C1=S (stereo not given)
4. COC(=O)C(Cc1ccc2oc(-c3ccc(N(c4ccccc4)c4ccccc4)cc3)nc2c1)NC(=O)OC(C)(C)C (stereo not given)

1. 0.22
2. 0.031
3. 0.316
4. 0.98

# per-item lookup of photoluminescence quantum yield; items listed below
1. CCCCCCCCC1(CCCCCCCC)c2cc(C#CC#Cc3ccc(N(c4ccccc4)c4ccccc4)cc3)ccc2-c2ccc(C=O)cc21
2. Cc1ccc(C2=[N+]3C(=Cc4c(C)cc(C)n4[B-]3(F)F)c3ccccc32)[nH]1
3. CC1=C2C=CC=[N+]2[B-](F)(F)n2cccc21
4. CC1=[N+]2C(=C(c3ccc(N(C)C)cc3)c3ccc(C)n3[B-]2(F)F)C=C1
5. C/C=C/c1cc(OC)cc(OC)c1

1. 0.5
2. 0.91
3. 0.96
4. 0.376
5. 0.04
